Test: qHTS drug screen for cell cycle checkpoint inhibitors in PARPi-resistant BRCA-mutant ovarian cancer cell lines. (AID 1963452)
Details: PEO1/OlaR viability, CellTiter-Glo luminescence, 96 h; active compounds read low
QUANTITY KIND: Z-AUC
A bare number is all that is needed in reply.

Data request: Any idea what its Z-AUC is? The compound is `CNC(=O)Nc1ccc(-c2nc(N3CC4CCC(C3)O4)c3cnn(C4CCC5(CC4)OCCO5)c3n2)cc1`
Data returned: -0.248

Data request: Any idea what its Z-AUC is? The compound is `COc1ccc(Nc2cc(-c3cnc(N)nc3)nc(N3CCOCC3)n2)cn1`
Data returned: 0.44

Data request: Any idea what its Z-AUC is? The compound is OC[C@H]1OC(O)C[C@@H](O)[C@H]1O (stereo partly specified)
Data returned: -0.67

Data request: Any idea what its Z-AUC is? The compound is `CC(=O)O[C@H]1C[C@@H]2CC[C@H]3[C@H]4C[C@H]([N+]5(C)CCCCC5)[C@@H](OC(C)=O)[C@@]4(C)CC[C@@H]3[C@@]2(C)C[C@H]1[N+]1(C)CCCCC1`
Data returned: 0.98

Data request: Any idea what its Z-AUC is? The compound is `COc1ccc([C@@H]2CNC(=O)C2)cc1OC1CCCC1`
Data returned: -0.0996

Data request: Any idea what its Z-AUC is? The compound is `CC(C)(C)c1nc2c3cc[nH]c(=O)c3c3cc(F)ccc3c2[nH]1`
Data returned: -0.0239

Data request: Any idea what its Z-AUC is? The compound is `NC(=O)Nc1cc(-c2ccc(CN3CCOCC3)cc2)sc1C(N)=O`
Data returned: 0.59

Data request: Any idea what its Z-AUC is? The compound is `CN1CCc2c(c3ccccc3n2Cc2ccc(C(=O)NO)cc2)C1`
Data returned: -0.848

Data request: Any idea what its Z-AUC is? The compound is `C[N+](C)([O-])CCNc1ccc(NCC[N+](C)(C)[O-])c2c1C(=O)c1c(O)ccc(O)c1C2=O`
Data returned: 0.909

Data request: Any idea what its Z-AUC is? The compound is `CS(=O)(=O)N1CCc2c(-c3cnc(N)nc3)nc(N3CCOCC3)nc21`
Data returned: -0.521

Data request: Any idea what its Z-AUC is? The compound is `C=CC(=O)Nc1ccc2ncnc(Nc3ccc(OCc4cccc(F)c4)c(Cl)c3)c2c1`
Data returned: -0.749

Data request: Any idea what its Z-AUC is? The compound is CC(C(C)N1CC(=O)NC(=O)C1)N1CC(=O)NC(=O)C1 (stereo unspecified)
Data returned: 0.386

Data request: Any idea what its Z-AUC is? The compound is `COc1cc(C(=O)NC2CCN(C)CC2)ccc1Nc1ncc2c(n1)N(C1CCCC1)CCC(=O)N2C(C)C`
Data returned: -0.77

Data request: Any idea what its Z-AUC is? The compound is `Oc1cc(-c2nc(-c3ccccc3)[nH]c2-c2ccncc2)ccc1Cl`
Data returned: -0.516

Data request: Any idea what its Z-AUC is? The compound is `Cc1cnc(Nc2ccc(CN3CCOCC3)cc2)nc1Nc1cccc(S(=O)(=O)NC(C)(C)C)c1`
Data returned: -2.02

Data request: Any idea what its Z-AUC is? The compound is `CC(Oc1ccc(O)cc1)(P(=O)(O)O)P(=O)(O)O`
Data returned: 0.474

====

Assay: Quantitative High-Throughput drug screen in 47 multiple myeloma cell lines against the NCATS MIPE library collection: JIM3_ECACC cell viability assay (AID 1918963; also: nearly all actives have a fitted effect of over 35% in size)
Details: JIM3 myeloma viability, CellTiter-Glo ATP, 48 h; series mostly up to 45.8 µM
Results filed as inconclusive are left out. Active and inactive are the calls of the source. Calls come from the whole dose curve; as a rule, active = well fitted cell-killing curve with a large enough effect; inconclusive = small, poorly fitted or top-dose-only effect; inactive = no such curve, though single readings can be large or run the other way.
Write down the outcome that applies. Available outcomes: 1 = active, 0 = inactive

Data request: What classification did C[C@@H]1C(=O)O[C@H]2CC34[C@H]5C[C@@H](C(C)(C)C)C36[C@H](OC(=O)[C@@H]6O)O[C@@]4(C(=O)O5)[C@]21O (stereo partly specified) end up with in this test?
Data returned: 0

Data request: What classification did `CON=C(C(=O)N[C@@H]1C(=O)N2C(C(=O)O)=C(Cn3ccc(=N)n3CCO)CS[C@H]12)c1csc(N)n1` end up with in this test?
Data returned: 0

Data request: What classification did `CC(C)Oc1ccc(C(=O)N[C@H](CNC(=O)CN(C)C)Cc2ccc(-c3cn4cccc([C@H](C)O)c4n3)cc2)cc1Cl` end up with in this test?
Data returned: 1

Data request: What classification did `Cn1cc(-c2cnn3c(N)c(Br)c([C@H]4CCCNC4)nc23)cn1` end up with in this test?
Data returned: 1

Data request: What classification did `CC(=O)NCC(=O)N1[C@H]2CC[C@H]1c1cc(Nc3ncc(C(F)(F)F)c(NC4CCC4)n3)ccc12` end up with in this test?
Data returned: 1

Data request: What classification did `C=CC(=O)Nc1ccc2ncnc(Nc3ccc(OCc4cccc(F)c4)c(Cl)c3)c2c1` end up with in this test?
Data returned: 1

Data request: What classification did CN(N=O)C(=O)N[C@H]1C(O)OC(CO)[C@@H](O)[C@H]1O (stereo partly specified) end up with in this test?
Data returned: 0

Data request: What classification did `CN[C@H](CC(C)C)C(=O)N[C@H]1C(=O)N[C@@H](CC(N)=O)C(=O)N[C@@H]2C(=O)N[C@H]3C(=O)N[C@H](C(=O)N[C@H](C(=O)O)c4cc(O)cc(O)c4-c4cc3ccc4O)[C@H](O)c3ccc(c(Cl)c3)Oc3cc2cc(c3O[C@@H]2O[C@H](CO)[C@@H](O)[C@H](O)[C@@H]2O[C@H]2C[C@](C)(N)[C@H](O)[C@H](C)O2)Oc2ccc(cc2Cl)[C@H]1O` end up with in this test?
Data returned: 0

Data request: What classification did OC[C@H]1OC(O)C[C@@H](O)[C@H]1O (stereo partly specified) end up with in this test?
Data returned: 0

Data request: What classification did CCOC(=O)C1=C(C)NC(=S)NC1c1cccc(O)c1 (stereo unspecified) end up with in this test?
Data returned: 1

Data request: What classification did `Oc1ccc(-c2ccc(-c3cc(Nc4cccc(CNC5CC5)c4)n[nH]3)cc2)c(O)c1` end up with in this test?
Data returned: 1

Data request: What classification did `Cc1ncc(-c2ccnc(Nc3ccc(S(C)(=O)=O)cc3)n2)n1C(C)C` end up with in this test?
Data returned: 1

Data request: What classification did `NC(=NCCCCCCN=C(N)N=C(N)Nc1ccc(Cl)cc1)N=C(N)Nc1ccc(Cl)cc1` end up with in this test?
Data returned: 1

Data request: What classification did COc1cc2c(cc1O)CCC1C2CC[C@@]2(C)C1CC[C@@H]2O (stereo partly specified) end up with in this test?
Data returned: 1

Data request: What classification did `CO[C@@H]1[C@@H](O)[C@H](O)[C@@H](n2c3c(Cl)cccc3c3c4c(c5c6cccc(Cl)c6[nH]c5c32)C(=O)NC4=O)O[C@@H]1CO` end up with in this test?
Data returned: 1

Data request: What classification did `Cc1cnc(Nc2ccc(N3CCN(C)CC3)cc2)nc1Nc1cccc(S(=O)(=O)NC(C)(C)C)c1` end up with in this test?
Data returned: 1

====

Experiment: qHTS of pediatric cancer cell lines to identify multiple opportunities for drug repurposing: Confirmatory screen for SJ-GBM2 cells (AID 1347116);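 also: 48 hour compound exposure; nearly all actives have a fitted effect of over 60% in size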
Conditions: SJ-GBM2 glioblastoma cells, viability; series mostly up to 45.9 µM
Inconclusive results are not listed. Calls of active or inactive are those of the source. The call rests on the fitted dose curve; in most records, active means well fitted cell-killing curve with a large enough effect; inconclusive means small, poorly fitted or top-dose-only effect, or effect the other way; inactive means no such curve, though single readings can be large or run the other way.
Write down the outcome that applies. Available outcomes: 1 for active, -1 for inactive

Data request: What classification did `C=CCNC1=C2C[C@@H](C)C[C@H](OC)[C@@H](O)[C@@H](C)C=C(C)[C@H](OC(N)=O)[C@@H](OC)C=CC=C(C)C(=O)NC(=CC1=O)C2=O` end up with in this test?
Data returned: 1

Data request: What classification did `O=C(NCc1ccccc1)[C@H](Cc1ccccc1)NC(=O)[C@@H]1O[C@@H]1C(=O)NCCc1ccc(O)cc1` end up with in this test?
Data returned: -1

Data request: What classification did `Cc1ccc([N+](=O)[O-])cc1S(=O)(=O)N(C)N=Cc1cnc2ccc(Br)cn12` end up with in this test?
Data returned: 1

====

So I've got a bunch of compounds here, and I need their Potency values.
Experiment: Quantitative High-Throughput drug screen in 47 multiple myeloma cell lines against the NCATS MIPE library collection: KMS20_JCRB cell viability assay (AID 1918973); also: potency is read from the fitted curve at half-maximal effect; nearly all actives have a fitted effect of over 45% in size
Details: CellTiter-Glo ATP, 48 h; series mostly up to 45.8 µM
Records with an inconclusive call do not appear. Activity calls are given as the source filed them. The call rests on the fitted dose curve; in most records, active means well fitted cell-killing curve with a large enough effect; inconclusive means small, poorly fitted or top-dose-only effect, or effect the other way; inactive means no such curve, though single readings can be large or run the other way.

Data request: Any idea what its Potency is? The compound is `O=C(O)c1ccc(Nc2ncc3c(n2)-c2ccc(Cl)cc2C(c2c(F)cccc2F)=NC3)cc1`
Data returned: 14.8 µM (active)

Data request: Any idea what its Potency is? The compound is `Oc1ccc(-c2ccc(-c3cc(Nc4cccc(CNC5CC5)c4)n[nH]3)cc2)c(O)c1`
Data returned: 1.32 µM (active)

Data request: Any idea what its Potency is? The compound is `CC(C)(O)Cn1c(NC(=O)c2ccc(-c3cn[nH]c3)s2)nc2cc(CN3CCOCC3)ccc21`
Data returned: 2.96 µM (active)

Data request: Any idea what its Potency is? The compound is `O=C(Nc1cccc(Nc2ncc(Br)c(NCCc3cnc[nH]3)n2)c1)N1CCCC1`
Data returned: 5.9 µM (active)

Data request: Any idea what its Potency is? The compound is `COc1cc2c(Nc3ccc(Cl)c(Cl)c3F)ncnc2cc1OCC1C[C@@H]2CN(C)C[C@H]2C1`
Data returned: 1.87 µM (active)

Data request: Any idea what its Potency is? The compound is `O=C(Nc1nnc(-c2ccco2)o1)c1cc(-c2ccccc2)nc2ccccc12`
Data returned: 16.6 µM (active)

Data request: Any idea what its Potency is? The compound is `CNC(=O)c1cccc(-c2ccc3c(N4CCOC[C@H]4C)nc(N4CCOC[C@H]4C)nc3n2)c1`
Data returned: 0.0935 µM (active)

Data request: Any idea what its Potency is? The compound is `COC1=C2C[C@@H](C)C[C@H](OC)[C@@H](O)[C@@H](C)C=C(C)[C@H](OC(N)=O)[C@@H](OC)C=CC=C(C)C(=O)NC(=CC1=O)C2=O`
Data returned: 0.0418 µM (active)

Data request: Any idea what its Potency is? The compound is `O=C1NCCc2[nH]c(-c3ccncc3)cc21`
Data returned: 2.64 µM (active)

Data request: Any idea what its Potency is? The compound is `N#CC(=C(N)Sc1ccc(N)cc1)c1ccccc1C(F)(F)F`
Data returned: 0.469 µM (active)

Data request: Any idea what its Potency is? The compound is `CC(C)[C@H](CO)Nc1nc(Nc2cccc(Cl)c2)c2ncn(C(C)C)c2n1`
Data returned: 20.9 µM (active)

Data request: Any idea what its Potency is? The compound is `CC(C)Oc1ccc(C(=O)N[C@H](CNC(=O)CN(C)C)Cc2ccc(-c3cn4cccc([C@H](C)O)c4n3)cc2)cc1Cl`
Data returned: 0.235 µM (active)

Data request: Any idea what its Potency is? The compound is `CCN(CC)CCNC(=O)c1c(C)[nH]c(C=C2C(=O)Nc3ccc(F)cc32)c1C`
Data returned: 0.855 µM (active)
